Each recorded value in this set is attributed to patent US20030068675.

target: ZFP SBS#428 (synthetic); experiment: EMSA; conditions: tags: MBP fusion
Sequence (chain, as listed by the source): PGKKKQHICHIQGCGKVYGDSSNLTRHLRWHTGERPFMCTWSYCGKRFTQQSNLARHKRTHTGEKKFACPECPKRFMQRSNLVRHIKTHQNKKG
Property Name: pKd
Numbers only, as −log10 of the molar value.

The binder identified as GAAGATGAC (dsDNA) DNA 1: GAAGATGAC DNA 2: GTCATCTTC registered its pKd at 6.92
